Provide the recorded melting point for the entries that follow.

The molecule listed as Cc1nc(CNC(=O)c2ccnc(N3CCN(Cc4ccc(F)cc4)C3=O)c2)cs1 [Example 14.13] shows melting point equal to 76 to 78 °C

The molecule listed as O=C(NCc1ccccc1)c1ccnc(-n2cnn(Cc3ccc(F)cc3)c2=O)c1 [Example 16] shows melting point equal to 173 to 175 °C

The molecule listed as O=C(NCc1cncs1)c1ccnc(N2CCN(Cc3ccc(F)cc3)C2=O)c1 [Example 14.1] shows melting point equal to 148 to 150 °C

The molecule listed as O=C(NCc1ccccc1)c1ccnc(NC(=O)C2CCCC2)c1 [Example 6.2] shows melting point equal to 55 to 57 °C

The molecule listed as CC(NC(=O)c1ccnc(N2CCN(Cc3ccc(F)cc3)C2=O)c1)c1ccccc1 (centres unmarked) [Example 26.6] shows melting point equal to 115 to 117 °C

The molecule listed as O=C(NCc1ccccc1)c1ccnc(NC(=O)c2ccc(OC(F)(F)F)cc2)c1 [Example 5.1] shows melting point equal to 151 to 153 °C

The molecule listed as Cc1ccc(CNC(=O)c2ccnc(NC(=O)c3ccccc3)c2)cc1 [Example 1.2] shows melting point equal to 135 to 138 °C

The molecule listed as O=C(NCc1ccc(F)cc1)c1ccnc(N2CCN(Cc3ccc(F)cc3)C2=O)c1 [Example 15.4] shows melting point equal to 173 to 175 °C

The molecule listed as O=C(NCc1ccccc1)c1ccnc(NC(=O)c2ccccc2)c1 [Example 5, 2-benzamido-N-benzylisonicotinamide] shows melting point equal to 174 to 176 °C

The molecule listed as Cc1nn(C)c(C)c1CNC(=O)c1ccnc(N2CCN(Cc3ccc(F)cc3)C2=O)c1 [Example 14.7] shows melting point equal to 179 to 181 °C

The molecule listed as O=C(NCc1nccs1)c1ccnc(-n2cnn(Cc3ccc(F)c(F)c3)c2=O)c1 [Example 26.28] shows melting point equal to 161 to 163 °C

The molecule listed as COc1cccc(C(=O)Nc2cc(C(=O)NCc3ccccc3)ccn2)c1 [Example 6.4] shows melting point equal to 95 to 96 °C

The molecule listed as O=C(NCc1ccccc1)c1cc[n+]([O-])c(NC(=O)c2ccccc2)c1 [Example 7] shows melting point equal to 198 to 201 °C

The molecule listed as Cc1cc(CNC(=O)c2ccnc(-n3cnn(Cc4ccc(F)c(F)c4)c3=O)c2)no1 [Example 24] shows melting point equal to 160 to 161 °C

The molecule listed as O=C(NCc1cc(-c2ccccc2)on1)c1ccnc(N2CCN(Cc3ccc(F)cc3)C2=O)c1 [Example 26.10] shows melting point equal to 199 to 201 °C

The molecule listed as CCCc1c[nH]c(-c2ccnc(NC(=O)c3ccccc3)c2)n1 [Example 10.1] shows melting point equal to 95 to 97 °C

The molecule listed as O=C(NCc1ccccc1)c1ccnc(NC(=O)c2cccs2)c1 [Example 6.3] shows melting point equal to 160 to 162 °C

---

Measurement kind: melting point

The compound listed as "O=C(NCc1ccccc1)c1ccnc(NC(=O)c2cc(F)cc(F)c2)c1" shows melting point equal to 185 to 187 °C

The compound listed as "O=C(NCc1cnc(Cl)s1)c1ccnc(N2CCN(Cc3ccc(F)cc3)C2=O)c1" shows melting point equal to 185 to 186 °C

The compound listed as "O=C(NCCC1CC1)c1ccnc(N2CCN(Cc3ccc(F)cc3)C2=O)c1" shows melting point equal to 123 to 125 °C

The compound listed as "O=C(NCc1nccs1)c1ccnc(N2CCN(Cc3ccc(F)c(F)c3)C2=O)c1" shows melting point equal to 105 to 107 °C

The compound listed as "O=C(NCc1ccccc1)c1ccnc(NC(=O)c2ccc(F)cc2)c1" shows melting point equal to 170 to 171 °C

The compound listed as "O=C(NCc1ccccn1)c1cc(N2CCN(Cc3ccc(F)cc3)C2=O)nc2ccccc12" shows melting point equal to 161 to 163 °C

The compound listed as "Cn1cc(CNC(=O)c2ccnc(N3CCN(Cc4ccc(F)cc4)C3=O)c2)cn1" shows melting point equal to 165 to 166 °C

The compound listed as "COc1ccc(C(=O)Nc2cc(C(=O)NCc3ccccc3)ccn2)cc1" shows melting point equal to 165 to 166 °C

The compound listed as "O=C(NCc1ccccc1)c1ccnc(NC(=O)c2cccc3ccccc23)c1" shows melting point equal to 65 to 67 °C

The compound listed as "Cc1nc(-c2ccccc2)sc1CNC(=O)c1ccnc(N2CCN(Cc3ccc(F)cc3)C2=O)c1" shows melting point equal to 182 to 184 °C

The compound listed as "O=C(NCc1ccc(F)cc1)c1ccnc(N2CCN(Cc3ccncc3)C2=O)c1" shows melting point equal to 161 to 163 °C

The compound listed as "O=C(NCc1ccccc1)c1ccnc(NC(=O)c2cccc(F)c2)c1" shows melting point equal to 140 to 143 °C

The compound listed as "CNC(=O)c1ccnc(N2CCN(Cc3ccc(F)cc3)C2=O)c1" shows melting point equal to 118 to 120 °C

The compound listed as "O=C(CCc1ccccc1)Nc1cc(C(=O)NCc2ccccc2)ccn1" shows melting point equal to 177 to 179 °C

The compound listed as "O=C(Nc1cc(-c2nc3ccccc3[nH]2)ccn1)c1ccccc1" shows melting point equal to 145 to 146 °C

The compound listed as "O=C(Nc1cc(-c2nc(Cc3ccccc3)c[nH]2)ccn1)c1ccccc1" shows melting point equal to 110 to 112 °C

The compound listed as "Cc1cnc(CNC(=O)c2ccnc(N3CCN(Cc4ccc(F)cc4)C3=O)c2)cn1" shows melting point equal to 169 to 171 °C

The compound listed as "O=C(NCc1ccc(F)cc1)c1ccnc(N2CCN(Cc3ccccn3)C2=O)c1" shows melting point equal to 141 to 142 °C

---

Measurement kind: melting point

The compound listed as "O=C(NCc1ccccc1)c1ccnc(N2CCN(CC3CC3)C2=O)c1" shows melting point equal to 121 to 123 °C

The compound listed as "O=C(NCc1ccc(F)cc1)c1ccnc(N2CCN(Cc3ccc(C(F)(F)F)cc3)C2=O)c1" shows melting point equal to 168 to 170 °C

The compound listed as "O=C(Nc1cc(-c2nnc(Cc3ccccc3)o2)ccn1)c1ccccc1" shows melting point equal to 187 to 189 °C

The compound listed as "O=C(NCc1ccc(F)cc1)c1ccnc(N2CCN(C(F)(F)c3ccc(C(F)F)cc3)C2=O)c1" shows melting point equal to 173 to 175 °C

---

Counter-ions that a name gives are not always drawn.
Measurement kind: melting point

The compound listed as "O=C(NCc1cncs1)c1ccnc(N2CCN(Cc3ccc(OC(F)(F)F)cc3)C2=O)c1" shows melting point equal to 189 to 191 °C

The compound listed as "Cc1cc(CNC(=O)c2ccnc(-n3cnn(Cc4ccc(F)cc4)c3=O)c2)no1" shows melting point equal to 198 to 200 °C

The compound listed as "O=C(NCc1cnc(Cl)s1)c1ccnc(N2CCN(Cc3ccc(OC(F)(F)F)cc3)C2=O)c1" shows melting point equal to 184 to 186 °C

The compound listed as O=C(NCc1ccccn1)c1ccnc(N2CCN(Cc3ccc(F)cc3)C2=O)c1 (as salt: hydrochloride) [Example 15.3, dihydrochloride] shows melting point equal to 141 to 143 °C

---

Provide the recorded melting point for the entries that follow.

The compound listed as "O=C(NCc1ccccc1)c1ccnc(-n2cnn(CC3CC3)c2=O)c1" shows melting point equal to 137 to 139 °C

The compound listed as "O=C(NCc1nccs1)c1ccnc(-n2cnn(Cc3ccc(F)cc3)c2=O)c1" shows melting point equal to 170 to 172 °C

The compound listed as "N#Cc1ccc(C(=O)Nc2cc(C(=O)NCc3ccccc3)ccn2)cc1" shows melting point equal to 180 to 181 °C

The compound listed as "O=C(NCc1cccnc1)c1ccnc(N2CCN(CC3CC3)C2=O)c1" shows melting point equal to 122 to 123 °C

The compound listed as "O=C(NCc1ccc(F)c(F)c1)c1ccnc(N2CCN(Cc3cccnc3)C2=O)c1" shows melting point equal to 178 to 180 °C

---

Measurement kind: melting point

The compound listed as Cc1cc(CNC(=O)c2ccnc(N3CCN(Cc4ccc(F)cc4)C3=O)c2)no1 [Example 14.10] shows melting point equal to 153 to 155 °C

The compound listed as NC(=O)c1ccnc(N2CCN(Cc3ccc(F)cc3)C2=O)c1 [Example 22] shows melting point equal to 206 to 208 °C

The compound listed as O=C(NCc1ccc(F)cc1)c1ccnc(N2CCN(Cc3ccc(F)cc3F)C2=O)c1 [Example 15.22] shows melting point equal to 171 to 173 °C

The compound listed as CS(=O)(=O)c1cccc(C(=O)Nc2cc(C(=O)NCc3ccccc3)ccn2)c1 [Example 6.13] shows melting point equal to 170 to 171 °C

The compound listed as Cc1cc(CNC(=O)c2ccnc(N3CCN(Cc4ccc(C(F)(F)F)cc4)C3=O)c2)no1 [Example 26.18] shows melting point equal to 153 to 155 °C

The compound listed as O=C(NCc1ccccc1)c1ccnc(NC(=O)c2ccc(C(F)(F)F)cc2)c1 [Example 5.2] shows melting point equal to 181 to 183 °C

The compound listed as O=C(NCc1cnc(Cl)s1)c1ccnc(N2CCN(Cc3ccc(F)c(F)c3)C2=O)c1 [Example 26.33] shows melting point equal to 161 to 163 °C

The compound listed as NC(=O)c1ccnc(N2CCN(Cc3ccc(C(F)(F)F)cc3)C2=O)c1 [Example 26.31] shows melting point equal to 167 to 169 °C

The compound listed as COc1cc(C(=O)NCc2ccccc2)cc(NC(=O)c2ccccc2)n1 [Example 6.17] shows melting point equal to 132 to 133 °C

The compound listed as O=C(NCc1cc(Br)no1)c1ccnc(N2CCN(Cc3ccc(F)cc3)C2=O)c1 [Example 26.9] shows melting point equal to 178 to 180 °C

The compound listed as O=C(NCc1ccccc1)c1ccnc(N2CCN(Cc3ccc4nonc4c3)C2=O)c1 [Example 26.5] shows melting point equal to 165 to 167 °C

The compound listed as O=C(NCc1nccs1)c1ccnc(N2CCN(Cc3ccc(F)cc3)C2=O)c1 [Example 14.3] shows melting point equal to 123 to 125 °C

The compound listed as O=C(NCc1nccs1)c1ccnc(N2CCN(Cc3ccc(C(F)(F)F)cc3)C2=O)c1 [Example 23] shows melting point equal to 139 to 141 °C

The compound listed as O=C(NCc1nccs1)c1ccnc(N2CCN(Cc3ccc(OC(F)(F)F)cc3)C2=O)c1 [Example 26.17] shows melting point equal to 97 to 99 °C

The compound listed as O=C(NCc1ccon1)c1ccnc(N2CCN(Cc3ccc(F)cc3)C2=O)c1 [Example 14.14] shows melting point equal to 127 to 129 °C

The compound listed as CN(C)c1ccc(C(=O)Nc2cc(C(=O)NCc3ccccc3)ccn2)cc1 [Example 6.11] shows melting point equal to 160 to 165 °C

The compound listed as Cn1cnc(CNC(=O)c2ccnc(N3CCN(Cc4ccc(F)cc4)C3=O)c2)c1 [Example 14.5] shows melting point equal to 174 to 176 °C
